System: K562/A02
Assay: Reversal fold, ratio of ADR IC50 to test compound IC50 for reversal of multi-drug resistance in human K562/A02 cells
Type: functional
Returns one of MET or NOT MET; MET when Ratio IC50 is >= 9.

1. COc1ccc2c(c1)CCN(CCc1ccc(N3Cc4cc(OC)c5c(c4-c4c(cc(OC)c6c4OCO6)C3)OCO5)cc1)C2 NOT MET
2. COc1cc2c(cc1OC)CN(CCc1ccccc1N1Cc3cc(OC)c4c(c3-c3c(cc(OC)c5c3OCO5)C1)OCO4)CC2 NOT MET
3. COc1ccc(C(=O)Nc2ccccc2C(=O)Nc2ccc(CCN3CCc4cc(OC)c(OC)cc4C3)cc2)cc1OC MET
4. COc1cc2c(cc1OC)CN(Cc1ccc(N3Cc4cc(OC)c5c(c4-c4c(cc(OC)c6c4OCO6)C3)OCO5)cc1)CC2 MET
5. COc1ccc2c(c1)CCN(CCCCCCN1Cc3cc(OC)c4c(c3-c3c(cc(OC)c5c3OCO5)C1)OCO4)C2 NOT MET
6. COc1cc2c(cc1OC)CN(CCCN1Cc3cc(OC)c4c(c3-c3c(cc(OC)c5c3OCO5)C1)OCO4)CC2 NOT MET
7. COc1cc2c(cc1OC)CN(CCc1ccc(N3Cc4cc(OC)c5c(c4-c4c(cc(OC)c6c4OCO6)C3)OCO5)cc1)CC2 MET

----------
System: K562/A02
Test: Reversal fold, ratio of ADR IC50 to test compound IC50 for reversal of multi-drug resistance in human K562/A02 cells
Format: functional
observed property: Ratio IC50

1. COc1cc2c(cc1OC)CN(CCN1Cc3cc(OC)c4c(c3-c3c(cc(OC)c5c3OCO5)C1)OCO4)CC2 4.29
2. COc1cc2c(c3c1OCO3)-c1c(cc(OC)c3c1OCO3)CN(c1ccc(CCN3CCOCC3)cc1)C2 16.7
3. COc1cc2c(c3c1OCO3)-c1c(cc(OC)c3c1OCO3)CN(c1ccc(CN3CCCCC3)cc1)C2 113.14
4. COc1cc2c(c3c1OCO3)-c1c(cc(OC)c3c1OCO3)CN(CCc1ccc3c(c1)OCO3)C2 20.58
